Provenance of the data: patent US20130216547A1

- TARGET UNDER TEST: T1, human big-endothelin-1 (big-ET-1) (human)
- T1 peptide: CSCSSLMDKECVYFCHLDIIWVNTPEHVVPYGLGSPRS
- ASSAY PROCEDURE: cell-based or functional assay
PROPERTY LABEL: Blocking IC50(M), 10 nM hBig-ET-1 + 3 nM hECE1; 293/ETaR/NFAT-Luc luciferase

H4H6323P (antibody, V domains shown, Human IgG4 Fc (prefix H4H)) VH: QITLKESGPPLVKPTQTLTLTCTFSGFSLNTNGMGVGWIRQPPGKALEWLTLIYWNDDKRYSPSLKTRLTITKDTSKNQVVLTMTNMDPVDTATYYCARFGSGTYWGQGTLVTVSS VL: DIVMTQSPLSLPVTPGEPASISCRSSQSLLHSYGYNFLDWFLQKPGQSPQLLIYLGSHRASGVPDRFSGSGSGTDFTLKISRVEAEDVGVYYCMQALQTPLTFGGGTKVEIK    7.6e-09
H4H6353P (antibody, V domains shown, Human IgG4 Fc (prefix H4H)) VH: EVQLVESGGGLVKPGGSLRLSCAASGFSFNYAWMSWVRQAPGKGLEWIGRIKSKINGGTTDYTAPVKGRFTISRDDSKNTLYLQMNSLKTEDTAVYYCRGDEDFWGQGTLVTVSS VL: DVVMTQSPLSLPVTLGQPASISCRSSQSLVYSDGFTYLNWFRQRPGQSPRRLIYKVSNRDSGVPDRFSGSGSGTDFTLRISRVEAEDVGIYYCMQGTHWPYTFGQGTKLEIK    1.8e-09
H4H6329P (antibody, V domains shown, Human IgG4 Fc (prefix H4H)) VH: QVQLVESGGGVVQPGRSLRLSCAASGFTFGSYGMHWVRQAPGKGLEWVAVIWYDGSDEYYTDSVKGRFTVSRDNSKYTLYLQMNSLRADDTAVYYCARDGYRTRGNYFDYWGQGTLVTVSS VL: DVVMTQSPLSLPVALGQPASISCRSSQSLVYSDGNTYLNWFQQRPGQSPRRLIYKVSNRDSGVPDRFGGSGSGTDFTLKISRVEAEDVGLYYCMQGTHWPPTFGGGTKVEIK    3.3e-09
H4H6492N2 (antibody, V domains shown, Human IgG4 Fc (prefix H4H)) VH: EVQLVESGGGLVKPGGSLRVSCVASGFTFSNAWMTWVRQTPGKGLEWVGRIKSRTDGGTVDYVAPVKGRFTISRDDSKNTLYLQMNSLKAEDTAVYYCRADLDYWGQGTLVTVSS VL: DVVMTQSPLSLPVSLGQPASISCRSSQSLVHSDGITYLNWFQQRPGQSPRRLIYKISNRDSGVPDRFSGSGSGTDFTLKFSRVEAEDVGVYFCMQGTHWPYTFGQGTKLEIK    4.17e-08
H4H6330P (antibody, V domains shown, Human IgG4 Fc (prefix H4H)) VH: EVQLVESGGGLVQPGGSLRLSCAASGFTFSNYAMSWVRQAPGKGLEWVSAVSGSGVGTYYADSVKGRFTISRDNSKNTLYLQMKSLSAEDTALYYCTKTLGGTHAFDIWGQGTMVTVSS VL: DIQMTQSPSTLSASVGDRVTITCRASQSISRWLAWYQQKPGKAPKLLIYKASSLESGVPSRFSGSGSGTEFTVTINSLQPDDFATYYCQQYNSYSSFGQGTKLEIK    1.7e-09
